Where these numbers come from: patent US20240101572A1

TESTED TARGET: full-length human PLD1 (Homo sapiens (Human))
TEST: Evaluation of human PLD1 enzyme inhibitory activity (Amplex Red / choline oxidase fluorescence)
Format: biochemical
CONDITION PARAMETERS: full-length human PLD1 enzyme; read-out: PLD1 IC50

{"SMILES STRING": "Cc1cc(F)ccc1C1=NNC(=O)O[C@]12CC[C@@H](C[C@H](C)NC(=O)N1Cc3ccccc3C1)CC2", "TESTED TARGET": "full-length human PLD1 (Homo sapiens (Human))", "SIGN QUALIFIER": "<", "IC50, nM": 10}
{"SMILES STRING": "CNC(=O)C(=O)N[C@@H](C)C[C@H]1CC[C@]2(CC1)OC(=O)NN=C2c1cnc(N2C[C@@H]3C[C@H]2CO3)cc1C", "TESTED TARGET": "full-length human PLD1 (Homo sapiens (Human))", "SIGN QUALIFIER": "=", "IC50, nM": 30}
{"SMILES STRING": "C[C@@H](C[C@H]1CC[C@]2(CC1)OC(=O)NN=C2c1ccc(F)cc1Cl)NC(=O)c1cc2ccccc2o1", "TESTED TARGET": "full-length human PLD1 (Homo sapiens (Human))", "SIGN QUALIFIER": "=", "IC50, nM": 12}
{"SMILES STRING": "CNC(=O)C(=O)N[C@@H](C)C[C@H]1CC[C@]2(CC1)OC(=O)NN=C2c1ccccc1SC(F)(F)F", "TESTED TARGET": "full-length human PLD1 (Homo sapiens (Human))", "SIGN QUALIFIER": "=", "IC50, nM": 12}
{"SMILES STRING": "Cc1cc(N2CCOCC2)ccc1C1=NNC(=O)O[C@]12CC[C@@H](C[C@H](C)NC(=O)N1CCOCC1)CC2", "TESTED TARGET": "full-length human PLD1 (Homo sapiens (Human))", "SIGN QUALIFIER": "=", "IC50, nM": 103}
{"SMILES STRING": "C[C@@H](C[C@H]1CC[C@]2(CC1)OC(=O)NN=C2c1ccc(F)cc1Br)NC(=O)[C@@H](C)O", "TESTED TARGET": "full-length human PLD1 (Homo sapiens (Human))", "SIGN QUALIFIER": "=", "IC50, nM": 341}
{"SMILES STRING": "CSc1ccccc1C1=NNC(=O)O[C@]12CC[C@@H](C[C@H](C)NC(=O)c1cc(Cl)no1)CC2", "TESTED TARGET": "full-length human PLD1 (Homo sapiens (Human))", "SIGN QUALIFIER": "<", "IC50, nM": 10}

---

Measured IC50, listed per entry.
TESTED TARGET: full-length human PLD1 (Homo sapiens (Human), UniProt Q13393)
Sequence (Q13393 other isoform, or with tags, fused parts or gaps): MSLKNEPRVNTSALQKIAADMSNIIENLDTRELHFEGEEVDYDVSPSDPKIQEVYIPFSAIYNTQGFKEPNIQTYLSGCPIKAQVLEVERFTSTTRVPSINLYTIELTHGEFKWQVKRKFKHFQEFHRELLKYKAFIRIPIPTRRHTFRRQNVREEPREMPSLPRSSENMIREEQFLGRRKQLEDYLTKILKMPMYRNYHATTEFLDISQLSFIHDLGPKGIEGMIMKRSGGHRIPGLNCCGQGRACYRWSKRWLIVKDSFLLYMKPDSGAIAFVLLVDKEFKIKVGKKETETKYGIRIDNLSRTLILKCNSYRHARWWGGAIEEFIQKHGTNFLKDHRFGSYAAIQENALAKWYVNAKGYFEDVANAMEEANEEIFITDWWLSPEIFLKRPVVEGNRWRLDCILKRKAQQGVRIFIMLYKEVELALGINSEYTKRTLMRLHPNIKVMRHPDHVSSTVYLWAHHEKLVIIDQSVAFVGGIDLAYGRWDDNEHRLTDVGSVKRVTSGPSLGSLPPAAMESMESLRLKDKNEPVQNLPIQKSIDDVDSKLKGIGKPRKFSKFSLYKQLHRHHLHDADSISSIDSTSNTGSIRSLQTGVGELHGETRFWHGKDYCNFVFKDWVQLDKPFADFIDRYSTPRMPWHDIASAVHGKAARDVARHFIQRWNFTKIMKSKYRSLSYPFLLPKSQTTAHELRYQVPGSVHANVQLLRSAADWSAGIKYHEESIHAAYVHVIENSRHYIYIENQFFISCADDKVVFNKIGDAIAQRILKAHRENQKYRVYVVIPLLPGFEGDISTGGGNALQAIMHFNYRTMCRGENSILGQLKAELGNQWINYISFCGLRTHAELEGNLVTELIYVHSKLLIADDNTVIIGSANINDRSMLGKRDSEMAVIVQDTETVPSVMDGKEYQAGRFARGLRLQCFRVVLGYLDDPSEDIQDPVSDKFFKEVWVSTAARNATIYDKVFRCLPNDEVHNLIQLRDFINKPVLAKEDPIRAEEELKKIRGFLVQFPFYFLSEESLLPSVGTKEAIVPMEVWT
TEST: Evaluation of human PLD1 enzyme inhibitory activity (Amplex Red / choline oxidase fluorescence)
Type: biochemical
CONDITION PARAMETERS: full-length human PLD1 enzyme; read-out: PLD1 IC50
PARAMETER: IC50 (nM)

{"SMILES STRING": "C[C@@H](C[C@H]1CC[C@]2(CC1)OC(=O)NN=C2c1ccc(F)cc1Br)NC(=O)C(F)F", "PARAMETER": "IC50", "RESULT UNIT": "nM", "ENDPOINT VALUE": 102}
{"SMILES STRING": "Cc1cc(F)ccc1C1=NNC(=O)O[C@]12CC[C@@H](C[C@H](C)NC(=O)c1ccc(Cl)cn1)CC2", "PARAMETER": "IC50", "RESULT UNIT": "nM", "ENDPOINT VALUE": 38}
{"SMILES STRING": "CC(=O)N[C@@H](C)C[C@H]1CC[C@]2(CC1)OC(=O)NN=C2c1ccc(OC(F)F)cc1Br", "PARAMETER": "IC50", "RESULT UNIT": "nM", "ENDPOINT VALUE": 141}
